- Tested on: JY
- PROTOCOL_DETAILS: Inhibition of JY8 cell adhesion process (The assay was run with 1% fetal bovine serum)
- Format: functional, cell-based
- RUN_PARAMETERS: Homo sapiens, JY-8
OBSERVABLE: IC50 (nM)
Write the answer as a number in nM, unit excluded.

CC(C)c1ccccc1Sc1ccc(/C=C/C(=O)N2CCC(C(=O)O)CC2)cc1[N+](=O)[O-]
165
O=C(O)C1CCCN(C(=O)/C=C/c2ccc(Sc3ccc4c(c3)OCCO4)c(C(F)(F)F)c2)C1 (centres undefined)
140
CC(C)c1ccccc1Sc1ccc(/C=C/C(=O)N2CCC(=O)CC2)cc1[N+](=O)[O-]
240
COC(=O)C1CN(C(=O)/C=C/c2ccc(Sc3ccccc3C(C)C)c([N+](=O)[O-])c2)CCN1 (centres undefined)
98
O=C(O)C1CCN(C(=O)/C=C/c2ccc(Sc3ccc4c(c3)OCCO4)c(C(F)(F)F)c2)CC1
150

Please give the measured IC50 for this compound: CC(C)c1ccccc1Sc1ccc(/C=C/C(=O)N2CCCC(C(=O)O)C2)cc1[N+](=O)[O-] (centres undefined)
90

So what's the measured IC50 for this one? CC(C)c1ccccc1Sc1ccc(/C=C/C(=O)N2CCOC(c3nnn[nH]3)C2)cc1[N+](=O)[O-] (centres undefined)
2

Look up IC50: CC(C)c1ccccc1Sc1ccc(/C=C/C(=O)N2CCN(C(=O)c3ccncc3)CC2)cc1[N+](=O)[O-]
20

Would you kindly share the measured IC50 for COC(=O)C1CN(C(=O)/C=C/c2ccc(Sc3ccccc3C(C)C)c([N+](=O)[O-])c2)CCN1C (centres undefined) ?
110

---

- PROTOCOL_DETAILS: Half life period after iv dose in rat
- Format: ADME, organism-based
- RUN_PARAMETERS: in vivo
OBSERVABLE: half-life (h)
# unit: h | format: bare number

Study these solved cases before continuing.
CC(C)c1ccccc1Sc1ccc(/C=C/C(=O)N2CCC(C(=O)O)CC2)cc1[N+](=O)[O-]
1.15
O=C(O)C1CCN(C(=O)/C=C/c2ccc(Sc3ccc4c(c3)OCCO4)c(C(F)(F)F)c2)CC1
3.9
CC(C)c1ccccc1Sc1ccc(/C=C/C(=O)N2CCNC(CO)C2)cc1[N+](=O)[O-] (centres undefined)
1.9

Now for the molecule whose half-life we want.
Param item = CC(C)c1ccccc1Sc1ccc(/C=C/C(=O)N2CCCC(C(=O)O)C2)cc1[N+](=O)[O-] (centres undefined) ; retrieve measured half-life.
0.4

---

Listed next: entries and their corresponding clearance.
- PROTOCOL_DETAILS: Clearance after iv dose in rat
- RUN_PARAMETERS: in vivo
Only the number, expressed in L/h/kg, is required.

Please review the following examples before continuing.
CC(C)c1ccccc1Sc1ccc(/C=C/C(=O)N2CCNC(CO)C2)cc1[N+](=O)[O-] (centres undefined)
3.2
CC(C)c1ccccc1Sc1ccc(/C=C/C(=O)N2CCC(C(=O)O)CC2)cc1[N+](=O)[O-]
0.791
O=C(O)C1CCN(C(=O)/C=C/c2ccc(Sc3ccc4c(c3)OCCO4)c(C(F)(F)F)c2)CC1
0.12

Moving on to another molecule below.
Look up clearance for this molecule: CC(C)c1ccccc1Sc1ccc(/C=C/C(=O)N2CCCC(C(=O)O)C2)cc1[N+](=O)[O-] (centres undefined)
2.1
